B1: OR4K15 (parent)
chain: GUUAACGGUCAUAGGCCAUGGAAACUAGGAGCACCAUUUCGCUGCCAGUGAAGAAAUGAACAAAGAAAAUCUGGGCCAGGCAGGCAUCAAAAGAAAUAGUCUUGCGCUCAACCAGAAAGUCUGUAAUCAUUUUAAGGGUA

Variants of: B1
experiment: self-cleavage, relative activity (ratio to wild type); higher = more cleavage; in vitro, sequencing; the parent is a self-cleaving ribozyme
propertyLabel: self-cleavage

mutationName | reported
G7A A78G | 0.19
U9C G99U | 0.63
U12A U43C | 0.49
